- Species on record: Rattus norvegicus
- assay.name: Open TG-GATES - Regimen: Single
- Type: toxicity, organism-based, Sprague-Dawley
- Design: regimen Single, gender Male, age 6 weeks
- recorded.conditions: in vivo, po, 0 mg/kg, 6 h, tissue Plasma, route gavage, dose level Control
test.readout: Ca (mg/dL)

compound="COc1ccc(Cc2nccc3cc(OC)c(OC)cc23)cc1OC [PAPAVERINE]" test_readout=Ca assay_result=11
compound="CSc1ccc2c(c1)N(CCC1CCCCN1C)c1ccccc1S2 (stereo not drawn) [THIORIDAZINE]" test_readout=Ca assay_result=10.9
compound="CN(C)CCC=C1c2ccccc2CCc2ccccc21 [AMITRIPTYLINE]" test_readout=Ca assay_result=10.7

---

- Species: Rattus norvegicus
- assay.name: Open TG-GATES - Regimen: Single
- Assay type: toxicity, organism-based, Sprague-Dawley
- Parameters: regimen Single, gender Male, age 6 weeks
- recorded.conditions: in vivo, po, 0 mg/kg, 9 h, tissue Liver, route gavage, dose level Control
test.readout: LIVER

compound=NC(=O)N/N=C/c1ccc([N+](=O)[O-])o1 test_readout=LIVER assay_result="7.1 g"
compound=Cn1c(=O)c2[nH]cnc2n(C)c1=O.O test_readout=LIVER assay_result="8.6 g"
compound=Clc1ccccc1CN1CCc2sccc2C1 test_readout=LIVER assay_result="7.9 g"
compound=CN(C)CCC=C1c2ccccc2CCc2ccccc21 test_readout=LIVER assay_result="7.8 g"
compound=O=C(O)c1cc(/N=N/c2ccc(S(=O)(=O)Nc3ccccn3)cc2)ccc1O test_readout=LIVER assay_result="8.7 g"
compound="CCc1cc(C(N)=S)ccn1 [ETHIONAMIDE]" test_readout=LIVER assay_result="9.8 g"

---

Reported BUN values for the following compounds.
- Organism: Rattus norvegicus
- assay.name: Open TG-GATES - Regimen: Single
- Type: toxicity, organism-based, Sprague-Dawley
- Design: regimen Single, gender Male, age 6 weeks
- recorded.conditions: in vivo, po, 0 mg/kg, 24 h, tissue Plasma, route gavage, dose level Control
test.readout: BUN (mg/dL)

compound="Cn1c(=O)c2[nH]cnc2n(C)c1=O.O [THEOPHYLLINE]" test_readout=BUN assay_result=16.6
compound="CSc1ccc2c(c1)N(CCC1CCCCN1C)c1ccccc1S2 (configuration not stated) [THIORIDAZINE]" test_readout=BUN assay_result=18.4
compound="O=C(O)c1cc(/N=N/c2ccc(S(=O)(=O)Nc3ccccn3)cc2)ccc1O [SULFASALAZINE]" test_readout=BUN assay_result=16.6
compound="NC(=O)N1c2ccccc2C=Cc2ccccc21 [CARBAMAZEPINE]" test_readout=BUN assay_result=15.6
compound="NC(=O)N/N=C/c1ccc([N+](=O)[O-])o1 [NITROFURAZONE]" test_readout=BUN assay_result=14.8
compound="O=C(O)c1cn(C2CC2)c2cc(N3CCNCC3)c(F)cc2c1=O [CIPROFLOXACIN]" test_readout=BUN assay_result=17.4
compound="C[C@H](CS)C(=O)N1CCC[C@H]1C(=O)O [CAPTOPRIL]" test_readout=BUN assay_result=18.2
compound="CCc1cc(C(N)=S)ccn1 [ETHIONAMIDE]" test_readout=BUN assay_result=20
compound="COc1cc2c(c3oc(=O)c4c(c13)CCC4=O)[C@@H]1C=CO[C@@H]1O2 [AFLATOXIN]" test_readout=BUN assay_result=16.5
compound="CC(=O)Oc1ccccc1C(=O)O [ASPIRIN]" test_readout=BUN assay_result=15.8
compound="CN(C)CCC=C1c2ccccc2CCc2ccccc21 [AMITRIPTYLINE]" test_readout=BUN assay_result=15.4
compound="COc1ccc(Cc2nccc3cc(OC)c(OC)cc23)cc1OC [PAPAVERINE]" test_readout=BUN assay_result=15.4
